Listed here are binders together with their documented optical density.
# Target Of Assay: T1, biotinylated goat anti-human kappa light chain
# T1 construct: positive control of the ELISA
# Protocol Summary: ELISA, positive control; further: test concentration or dose not given here
Numbers only here, please. The scale is OD.

368_C08 (antibody, V domains shown, Group III) VH: EVQLLESGGGLVQPGGSLRLSCAASGFTFSDYSMNWVRQAPGKGLEWVSGINYNGGYTSYADSVKGRFTISRDNSKNTLYLQMNSLRAEDTAVYYCARGANWHDTHLDYWGQGTLVTVSS VL: DIQMTQSPSSLSASVGDRVTITCRASQSILTYVNWYQQKPGKAPKLLIYAASSLQSGVPSRFSGSGSGTDFTLTISSLQPEDFATYYCQQSYSTPLTFGGGTKVEIK : 3.38
372_D03 (antibody, V domains shown, Group III) VH: EVQLLESGGGLVQPGGSLRLSCAASGFTFSSYSMNWVRQAPGKGLEWVAGINYNSGYKSYADSVKGRFTISRDNSKNTLYLQMNSLRAEDTAVYYCARGANWHDTALDYWGQGTLVTVSS VL: DIQMTQSPSSLSASVGDRVTITCRASQSILSYVNWYQQKPGKAPKLVIYAVTSRHSGVPSRFSGSGSGTDFTLTISSLQPEDFATYYCQQSYDSPLTFGGGTKVEIK : 3.6
369_A07 (antibody, V domains shown, Group III) VH: EVQLLESGGGLVQPGGSLRLSCAASGFTFSSYSMNWVRQAPGKGLEWVAGINYNGGYKGYADSVKGRFTISRDNSKNTLYLQMNSLRAEDTAVYYCARGANWHDTALDYWGQGTLVTVSS VL: DIQMTQSPSSLSASVGDRVTITCRASQSILSYLNWYQQKPGKAPKLVIYAATSRASGVPSRFSGSGSGTDFTLTISSLQPEDFATYYCQQSYESPLTFGGGTKVEIK : 3.42

Next binder, please.
Which measured optical density value corresponds to 375_A12 (antibody, V domains shown, Group III) VH: EVQLLESGGGLVQPGGSLRLSCAASGFTFSSYSMNWVRQAPGKGLEWVSGINYNSGYKSYADSVKGRFTISRDNSKNTLYLQMNSLRAEDTAVYYCARGANWHDTALDYWGQGTLVTVSS VL: DIQMTQSPSSLSASVGDRVTITCRASQSILSYLNWYQQKPGKAPKLVIYAVTSRASGVPSRFSGSGSGTDFTLTISSLQPEDFATYYCQQSYETPLTFGGGTKVEIK ?
3.14
